molecular target: ScLsb1; assay: SPOT peptide array binding signal intensity (averaged, normalized) (arbitrary units (background-subtracted, floor 0; scale differs between SH3 domains)); higher = stronger binding of the SH3 domain to the peptide
SPOT peptide array binding signal intensity listing for selected binders.

The following binders have reported results that may help.
INSERT INTO measurements (binder, result) VALUES
  ('VDFTLPPPPPPPGLD', '≤ 0'),
  ('HAPPLPPTAPPPPSL', '≤ 0');

Switching to the query record.
Check the records and state SPOT peptide array binding signal intensity for DFTLPPPPPPPGLDE ≤ 0
